Answer each item with its documented IC50.
Target: Kras and SOS1 (biotin-tagged human Kras loaded with GDP, His-tagged human SOS1) (Homo sapiens, UniProt P01116, G12D)
Construct: made in house; host or cells: E. coli (stated for Kras only)
Sequence (P01116 1-188 isoform P01116-2 G12D): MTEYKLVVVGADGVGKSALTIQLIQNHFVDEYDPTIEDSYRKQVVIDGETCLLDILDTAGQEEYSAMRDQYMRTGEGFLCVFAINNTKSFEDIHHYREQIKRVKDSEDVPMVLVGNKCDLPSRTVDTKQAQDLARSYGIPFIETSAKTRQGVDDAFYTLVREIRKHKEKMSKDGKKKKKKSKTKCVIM
Assay: Protein-protein interaction inhibition between Kras and SOS1 (KrasGl2D-SOS PPI) using AlphaScreen
Assay type: binding
Settings: AlphaScreen; biotin-tagged human Kras loaded with GDP, His-tagged human SOS1; read-out: KRAS G12D-SOS PPI IC50
Experimental: Protein-Protein Interaction Inhibition Between Kras and SOS1 (KrasGl2D-SOS PPI) Using AlphaScreen Protein-protein interaction inhibition (PPI) between Kras and SOS1 was measured by energy transfer from nickel-conjugated donor beads to streptavidin-conjugated acceptor beads using biotin-tagged human Kras expressed in E. coli and loaded with GDP after purification and His-tagged human SOS1 enzyme. […]
Positions of bridges follow the written chain, without caps; N, C: chain ends. Non-standard residues stand in square brackets, D forms with d. Residues, ends and D or L forms follow the SMILES beside them. *: point of attachment. hPhe(3-Cl-4-CF3) = N[C@@H](CCc1ccc(C(F)(F)F)c(Cl)c1)C(=O)O; NMePhe(3-F) = CN[C@@H](Cc1cccc(F)c1)C(=O)O; NMeChg = CN[C@H](C(=O)O)C1CCCCC1; NMeD = CN[C@@H](CC(=O)O)C(=O)O; NMeL = CN[C@@H](CC(C)C)C(=O)O; NMeV = CN[C@H](C(=O)O)C(C)C; Piperidide = C1CCN(*)CC1; Ac5c = NC1(C(=O)O)CCCC1; Sar = CNCC(=O)O
Answers are plain numbers, in nM.

CC[C@H](C)[C@@H]1NC(=O)[C@H](CC(C)C)N(C)C(=O)C[C@@H](C(=O)N2CCCCC2)N(C)C(=O)[C@H](C(C)C)N(C)C(=O)C2(CCCC2)NC(=O)[C@@H]2CCCN2C(=O)[C@H](CCc2ccc(C(F)(F)F)c(Cl)c2)NC(=O)CN(C)C(=O)[C@H](Cc2cccc(F)c2)N(C)C(=O)CN(C)C(=O)CN(C)C1=O [Compound 1557] ([NMeL]I[Sar][Sar][NMePhe(3-F)][Sar][hPhe(3-Cl-4-CF3)]P[Ac5c][NMeV][NMeD]-Piperidide; lactam N-11)    5.7

Consider now this further compound.
Q) Check the records and state IC50 for CC[C@H](C)[C@@H]1NC(=O)[C@H](CC(C)C)N(C)C(=O)C[C@@H](C(=O)N2CCCCC2)N(C)C(=O)[C@H](C2CCCCC2)N(C)C(=O)C2(CCCC2)NC(=O)[C@@H]2CCCN2C(=O)[C@H](CCc2ccc(C(F)(F)F)c(Cl)c2)NC(=O)CN(C)C(=O)[C@H](C(C)C)N(C)C(=O)CN(C)C(=O)CN(C)C1=O [Compound 1829] ([NMeL]I[Sar][Sar][NMeV][Sar][hPhe(3-Cl-4-CF3)]P[Ac5c][NMeChg][NMeD]-Piperidide; lactam N-11)
A) 1.5

###

target: Kras and SOS1 (biotin-tagged human Kras loaded with GDP, His-tagged human SOS1) (Homo sapiens, UniProt P01116, G12D); construct: made in house; host or cells: E. coli (stated for Kras only); assay: Protein-protein interaction inhibition between Kras and SOS1 (KrasGl2D-SOS PPI) using AlphaScreen; type: binding; settings: AlphaScreen; biotin-tagged human Kras loaded with GDP, His-tagged human SOS1; read-out: KRAS G12D-SOS PPI IC50
pIC50: −log10 of the molar value. Starred links: 1 amine or outer side, 2 acyl side, 3 side chain; linkers in the order of their positions; H or OH if unused. Positions of bridges follow the written chain, without caps; N, C: chain ends. Non-standard residues stand in square brackets, D forms with d. Residues, ends and D or L forms follow the SMILES beside them. *: point of attachment. hPhe(3-Cl-4-CF3) = N[C@@H](CCc1ccc(C(F)(F)F)c(Cl)c1)C(=O)O; NMePhe(4-Me) = CN[C@@H](Cc1ccc(C)cc1)C(=O)O; NMePhe(4-F) = CN[C@@H](Cc1ccc(F)cc1)C(=O)O; X33 = Cc1ccc(CC[C@H](N[*:1])C(=O)[*:2])cc1; NMeCha = CN[C@@H](CC1CCCCC1)C(=O)O; NMeCba = CN[C@@H](CC1CCC1)C(=O)O; NMeChg = CN[C@H](C(=O)O)C1CCCCC1; NMeI = CC[C@H](C)[C@H](NC)C(=O)O; NMeD = CN[C@@H](CC(=O)O)C(=O)O; NMeL = CN[C@@H](CC(C)C)C(=O)O; NMeV = CN[C@H](C(=O)O)C(C)C; d(β3hA) = C[C@@H](N)CC(=O)O; NMeA = CN[C@@H](C)C(=O)O; Piperidide = C1CCN(*)CC1; dNMeA = CN[C@H](C)C(=O)O; Ac5c = NC1(C(=O)O)CCCC1; Aze = O=C(O)[C@@H]1CCN1; NEtG = CCNCC(=O)O; Sar = CNCC(=O)O
Please mark 1 (yes) if the recorded pIC50 is equal to or greater than 8, and 0 (no) if it falls below.

Previously resolved entries follow.
CC[C@H](C)[C@@H]1NC(=O)[C@H](CC(C)C)N(C)C(=O)C[C@@H](C(=O)N(C)C)N(C)C(=O)[C@H]([C@@H](C)CC)N(C)C(=O)[C@H](C)NC(=O)[C@@H](C)NC(=O)[C@H](CCc2ccc(C(F)(F)F)c(Cl)c2)NC(=O)CN(C)C(=O)[C@H](Cc2ccc(C)cc2)N(C)C(=O)[C@@H]2CCN2C(=O)[C@H](C)N(C)C1=O [Compound 382] ([NMeL]I[NMeA][Aze][NMePhe(4-Me)][Sar][hPhe(3-Cl-4-CF3)][dA]A[NMeI][NMeD]-NMe2; lactam N-11)    0 (no)
CC[C@H](C)[C@@H]1NC(=O)[C@H](CC(C)C)N(C)C(=O)C[C@@H](C(=O)N2CCCCC2)N(C)C(=O)[C@H](C2CCCCC2)N(C)C(=O)C2(CCCC2)NC(=O)[C@@H]2CCCN2C(=O)[C@H](CCc2ccc(C(F)(F)F)c(Cl)c2)NC(=O)CN(CC)C(=O)[C@H](CC2CCCCC2)N(C)C(=O)CN(C)C(=O)CN(C)C1=O [Compound 1203] ([NMeL]I[Sar][Sar][NMeCha][NEtG][hPhe(3-Cl-4-CF3)]P[Ac5c][NMeChg][NMeD]-Piperidide; lactam N-11)    1 (yes)
CC[C@H](C)[C@@H]1NC(=O)[C@H](C)N(C)C(=O)C[C@@H](C(=O)N2CCCCC2)N(C)C(=O)[C@H](C(C)C)N(C)C(=O)C2(CCCC2)NC(=O)[C@@H]2CCCN2C(=O)[C@H](CCc2ccc(C(F)(F)F)c(Cl)c2)NC(=O)CN(C)C(=O)[C@H](Cc2ccc(F)cc2)N(C)C(=O)[C@@H]2CCCN2C(=O)CN(C)C1=O [Compound 1698] ([NMeA]I[Sar]P[NMePhe(4-F)][Sar][hPhe(3-Cl-4-CF3)]P[Ac5c][NMeV][NMeD]-Piperidide; lactam N-11)    1 (yes)
CC[C@H](C)[C@@H]1NC(=O)[C@H](C)N(C)C(=O)C[C@@H](C)NC(=O)[C@H](C(C)C)N(C)C(=O)C2(CCCC2)NC(=O)[C@@H]2CCCN2C(=O)[C@H](CCc2ccc(C(F)(F)F)c(Cl)c2)NC(=O)[C@@H](C)N(C)C(=O)[C@H](CC2CCCCC2)N(C)C(=O)CN(C)C(=O)[C@@H]2CCN2C1=O [Compound 2010] (cyclo([Ac5c][NMeV][d(β3hA)][NMeA]I[Aze][Sar][NMeCha][dNMeA][hPhe(3-Cl-4-CF3)]P))    0 (no)
CC[C@H](C)[C@@H]1NC(=O)[C@H](CC2CCC2)N(C)C(=O)C[C@@H](C(=O)N2CCCCC2)N(C)C(=O)[C@H](C(C)C)N(C)C(=O)C2(CCCC2)NC(=O)[C@@H]2CCCN2C(=O)[C@H](CCc2ccc(C(F)(F)F)c(Cl)c2)NC(=O)CN(C)C(=O)[C@H](CC2CCCCC2)N(C)C(=O)CN(C)C(=O)CN(C)C1=O [Compound 911] ([NMeCba]I[Sar][Sar][NMeCha][Sar][hPhe(3-Cl-4-CF3)]P[Ac5c][NMeV][NMeD]-Piperidide; lactam N-11)    1 (yes)
CC[C@H](C)[C@@H]1NC(=O)[C@H](C)N(C)C(=O)C[C@@H](C(=O)N2CCCCC2)N(C)C(=O)[C@H](C2CCCCC2)N(C)C(=O)C2(CCCC2)NC(=O)[C@@H]2CCCN2C(=O)[C@H](CCc2ccc(C)cc2)NC(=O)CN(C)C(=O)[C@H](CC2CCCCC2)N(C)C(=O)CN(C)C(=O)CN(C)C1=O [Compound 1055] ([NMeA]I[Sar][Sar][NMeCha][Sar][X33]P[Ac5c][NMeChg][NMeD]-Piperidide; lactam N-11)    1 (yes)

Next item in the queue.
Q) Please tell me: is the compound CC[C@H](C)[C@@H]1NC(=O)[C@H](CC(C)C)N(C)C(=O)C[C@@H](C(=O)N(C)C)N(C)C(=O)[C@H](C(C)C)N(C)C(=O)C2(CCCC2)NC(=O)[C@@H]2CCCN2C(=O)[C@H](CCc2ccc(C(F)(F)F)c(Cl)c2)NC(=O)CN(C)C(=O)[C@H](CC2CCCCC2)N(C)C(=O)CN(C)C(=O)CN(C)C1=O [Compound 1812] ([NMeL]I[Sar][Sar][NMeCha][Sar][hPhe(3-Cl-4-CF3)]P[Ac5c][NMeV][NMeD]-NMe2; lactam N-11) at or over 8 in terms of pIC50?
A) 1 (yes)
